assay: qHTS assay to identify aromatase inhibitors - cell viability counter screen (AID 743084); details: MCF-7 aro ERE viability, CellTiter-Fluor, 24 h; series mostly up to 70.3 µM;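 also: cells stimulated with testosterone during compound exposure; nearly all actives have a fitted effect of over 55% in size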
Inconclusive results are not listed. Active and inactive are the calls of the source. Calls follow the shape of the dose curve; as a rule, active = well fitted cell-killing curve with a large enough effect in the repeat runs; inconclusive = weak or mixed curves, or effect the other way; inactive = no such curve, though single readings can be large or run the other way.
Result category, one only: true (active), false (inactive)

Exam item: Hi team, can someone confirm the assay call for O=C1[C@H]2CCCC[C@H]2C(=O)N1CCCCN1CCN(c2nsc3ccccc23)CC1 ?
Marked response: true

Exam item: Hi team, can someone confirm the assay call for Nc1ccc(N)c2c1C(=O)c1ccccc1C2=O ?
Marked response: true

Exam item: Hi team, can someone confirm the assay call for CCCCC(CC)CN1C(=O)C2C3C=CC(C3)C2C1=O (stereo unspecified) ?
Marked response: true

Exam item: Hi team, can someone confirm the assay call for COC(C)OC ?
Marked response: false

Exam item: Hi team, can someone confirm the assay call for COc1cccc(N(C)C(=S)Oc2ccc3c(c2)CCCC3)n1 ?
Marked response: false

Exam item: Hi team, can someone confirm the assay call for CCOC(=O)NCCOc1ccc(Oc2ccccc2)cc1 ?
Marked response: false

----------
assay: qHTS assay to identify aromatase inhibitors - cell viability counter screen (AID 743084); conditions: MCF-7 aro ERE viability, CellTiter-Fluor, 24 h; series mostly up to 70.3 µM;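 also: cells stimulated with testosterone during compound exposure; nearly all actives have a fitted effect of over 55% in size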
Records with an inconclusive call do not appear. The source made the active and inactive calls. Calls follow the shape of the dose curve; as a rule, active = well fitted cell-killing curve with a large enough effect in the repeat runs; inconclusive = weak or mixed curves, or effect the other way; inactive = no such curve, though single readings can be large or run the other way.
Result category, one only: active, inactive

Exam item: Hi team, can someone confirm the assay call for CC(=O)c1ccc2c(c1)N(CCCN(C)C)c1ccccc1S2 ?
Marked response: inactive

Exam item: Hi team, can someone confirm the assay call for C[C@@H](c1ncncc1F)C(O)(Cn1cncn1)c1ccc(F)cc1F (stereo partly specified) ?
Marked response: inactive

Exam item: Hi team, can someone confirm the assay call for O=C1OC(=O)C2C3C=CC(C3)C12 (stereo unspecified) ?
Marked response: inactive

Exam item: Hi team, can someone confirm the assay call for CCO[C@H](Cc1ccc(OCCc2ccc(OS(C)(=O)=O)cc2)cc1)C(=O)O ?
Marked response: inactive

Exam item: Hi team, can someone confirm the assay call for O=C(O)CC(=O)C(=O)O ?
Marked response: inactive

Exam item: Hi team, can someone confirm the assay call for Cc1c(N)cccc1[N+](=O)[O-] ?
Marked response: inactive

Exam item: Hi team, can someone confirm the assay call for COc1cc(C(=O)OCCCN2CCCN(CCCOC(=O)c3cc(OC)c(OC)c(OC)c3)CC2)cc(OC)c1OC ?
Marked response: active

Exam item: Hi team, can someone confirm the assay call for C#C[C@]1(O)CC[C@H]2[C@@H]3CCc4cc(OC5CCCC5)ccc4[C@H]3CC[C@@]21C ?
Marked response: inactive

Exam item: Hi team, can someone confirm the assay call for C[C@H](CCC(=O)O)[C@H]1CC[C@H]2[C@@H]3CC[C@@H]4C[C@H](O)CC[C@]4(C)[C@H]3C[C@H](O)[C@]12C ?
Marked response: inactive

Exam item: Hi team, can someone confirm the assay call for CC1(c2ccccc2)OC(C(=O)O)=CC1=O (stereo unspecified) ?
Marked response: inactive

Exam item: Hi team, can someone confirm the assay call for Cn1c(=O)cc(Oc2ccc(F)cc2F)c2cnc(NCC(C)(C)O)nc21 ?
Marked response: inactive

----------
experiment: qHTS assay to identify small molecule agonists of the farnesoid-X-receptor (FXR) signaling pathway - cell viability counter screen (AID 743218); conditions: FXR-bla HEK293T viability, CellTiter-Glo luminescence, 16 h; series mostly up to 62.6 µM; also: nearly all actives have a fitted effect of over 45% in size
Inconclusive results are not listed. Calls of active or inactive are those of the source. The call rests on the fitted dose curve; in most records, active means well fitted cell-killing curve with a large enough effect in the repeat runs; inconclusive means weak or mixed curves, or effect the other way; inactive means no such curve, though single readings can be large or run the other way.
Result category, one only: active, inactive

Exam item: Hi team, can someone confirm the assay call for C=C(C)C(=O)OCCO ?
Marked response: inactive

Exam item: Hi team, can someone confirm the assay call for C1CCCNCCC1 ?
Marked response: inactive

Exam item: Hi team, can someone confirm the assay call for CCOc1ccc(N)c([N+](=O)[O-])c1 ?
Marked response: inactive

Exam item: Hi team, can someone confirm the assay call for CN(C)CCCN1c2ccccc2Sc2ccccc21 ?
Marked response: active

Exam item: Hi team, can someone confirm the assay call for COc1cc2nc(Cl)nc(N)c2cc1OC ?
Marked response: inactive

Exam item: Hi team, can someone confirm the assay call for C#CCN(C)CCCOc1ccc(Cl)cc1Cl ?
Marked response: inactive

Exam item: Hi team, can someone confirm the assay call for NCc1ccccc1Sc1ccccc1CO ?
Marked response: inactive

Exam item: Hi team, can someone confirm the assay call for CC1CCC(=O)C1=O (centres undefined) ?
Marked response: inactive

Exam item: Hi team, can someone confirm the assay call for CN1CCN(C(c2ccccc2)c2ccccc2)CC1 ?
Marked response: inactive

Exam item: Hi team, can someone confirm the assay call for C[C@@H](c1ncncc1F)C(O)(Cn1cncn1)c1ccc(F)cc1F (some centres undefined) ?
Marked response: inactive

Exam item: Hi team, can someone confirm the assay call for CCCCC1=NC2(CCCC2)C(=O)N1Cc1ccc(-c2ccccc2-c2nn[nH]n2)cc1 ?
Marked response: inactive

Exam item: Hi team, can someone confirm the assay call for O=C1c2ccccc2S(=O)(=O)N1CCCCN1CCN(c2ncccn2)CC1 ?
Marked response: inactive

Exam item: Hi team, can someone confirm the assay call for NCCCN1CCOCC1 ?
Marked response: inactive

Exam item: Hi team, can someone confirm the assay call for CC(C)(CO)[N+](=O)[O-] ?
Marked response: inactive
